B1: library; a variant is named by its letters at N, in order (parent)
chain: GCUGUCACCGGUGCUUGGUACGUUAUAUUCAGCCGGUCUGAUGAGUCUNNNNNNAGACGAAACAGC

variants of: B1; experiment: normalized RNA/DNA level without ligand (relative to sTRSVctl = 100) (log10 (% of sTRSVctl)); HEK293T overexpressing SLC46A1; higher = less ribozyme self-cleavage, higher mRNA level; conditions: without (6R,S)-folinic acid; ligand present: no
Measured normalized RNA/DNA level without ligand (log10) accompanies every entry in the list below.
Give only the figure.

Seq text | Readout number
GCUGUCACCGGUGCUUGGUACGUUAUAUUCAGCCGGUCUGAUGAGUCUCUGGGCAGACGAAACAGC [CUGGGC] | 2.06

Inquiry: Look at this variant and give its reported normalized RNA/DNA level without ligand (log10). GCUGUCACCGGUGCUUGGUACGUUAUAUUCAGCCGGUCUGAUGAGUCUUUUAACAGACGAAACAGC [UUUAAC]
Reply text: 1.98

Inquiry: Another variant: GCUGUCACCGGUGCUUGGUACGUUAUAUUCAGCCGGUCUGAUGAGUCUUUCACGAGACGAAACAGC [UUCACG]
Reply text: 1.95

Inquiry: Then GCUGUCACCGGUGCUUGGUACGUUAUAUUCAGCCGGUCUGAUGAGUCUAGGACAAGACGAAACAGC [AGGACA] ?
Reply text: 1.99

Inquiry: Repeat with GCUGUCACCGGUGCUUGGUACGUUAUAUUCAGCCGGUCUGAUGAGUCUAAUCCAAGACGAAACAGC [AAUCCA]
Reply text: 1.99

Inquiry: And what about the variant GCUGUCACCGGUGCUUGGUACGUUAUAUUCAGCCGGUCUGAUGAGUCUAUUAGCAGACGAAACAGC [AUUAGC] ?
Reply text: 1.99

Inquiry: Same read-out for GCUGUCACCGGUGCUUGGUACGUUAUAUUCAGCCGGUCUGAUGAGUCUCCGAGUAGACGAAACAGC [CCGAGU] ?
Reply text: 2.03

Inquiry: Further, for GCUGUCACCGGUGCUUGGUACGUUAUAUUCAGCCGGUCUGAUGAGUCUUGGGGGAGACGAAACAGC [UGGGGG] ?
Reply text: 1.8

Inquiry: Again, but for GCUGUCACCGGUGCUUGGUACGUUAUAUUCAGCCGGUCUGAUGAGUCUCACGUCAGACGAAACAGC [CACGUC]
Reply text: 2.02

Inquiry: Also GCUGUCACCGGUGCUUGGUACGUUAUAUUCAGCCGGUCUGAUGAGUCUAGUCGGAGACGAAACAGC [AGUCGG] , if possible.
Reply text: 1.94

Inquiry: Request: GCUGUCACCGGUGCUUGGUACGUUAUAUUCAGCCGGUCUGAUGAGUCUAUGUUAAGACGAAACAGC [AUGUUA]
Reply text: 1.94

Inquiry: Can you check GCUGUCACCGGUGCUUGGUACGUUAUAUUCAGCCGGUCUGAUGAGUCUUCAGAUAGACGAAACAGC [UCAGAU] next?
Reply text: 1.95

Inquiry: Also check GCUGUCACCGGUGCUUGGUACGUUAUAUUCAGCCGGUCUGAUGAGUCUACGCACAGACGAAACAGC [ACGCAC]
Reply text: 2.02
